experimental target: UniProt P00747
Sequence (P00747 581-810): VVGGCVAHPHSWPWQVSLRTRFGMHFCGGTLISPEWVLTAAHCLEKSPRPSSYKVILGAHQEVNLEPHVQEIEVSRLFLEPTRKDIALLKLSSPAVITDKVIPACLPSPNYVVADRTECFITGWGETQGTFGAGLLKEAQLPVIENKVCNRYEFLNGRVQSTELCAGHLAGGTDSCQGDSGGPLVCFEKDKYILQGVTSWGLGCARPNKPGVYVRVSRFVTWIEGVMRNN
Sequence (P00747 97-580 partner): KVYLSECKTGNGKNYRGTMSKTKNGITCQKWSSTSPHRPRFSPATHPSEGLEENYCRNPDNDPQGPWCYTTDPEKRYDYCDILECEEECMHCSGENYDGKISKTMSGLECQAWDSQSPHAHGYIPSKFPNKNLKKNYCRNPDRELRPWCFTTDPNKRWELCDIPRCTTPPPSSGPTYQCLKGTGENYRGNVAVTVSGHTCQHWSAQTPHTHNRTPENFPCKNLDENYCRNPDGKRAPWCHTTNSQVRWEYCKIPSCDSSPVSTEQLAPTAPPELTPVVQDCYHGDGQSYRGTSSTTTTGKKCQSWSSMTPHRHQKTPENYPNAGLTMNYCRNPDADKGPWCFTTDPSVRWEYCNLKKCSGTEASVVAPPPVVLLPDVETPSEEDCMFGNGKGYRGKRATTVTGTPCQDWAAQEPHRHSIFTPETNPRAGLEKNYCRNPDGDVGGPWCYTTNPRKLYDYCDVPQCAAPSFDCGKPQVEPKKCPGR
procedure text: Determination of inhibition constants for human plasmin (chromogenic substrate)
Assay type: biochemical
condition info: 25° C., Chromozym PL substrate; read-out: h plasmin Ki
result type: log10(Ki) (log10 of the value in nM)
Recall that a logarithmic scale is used here: each number is log10 of Ki in nM.

CC(=O)N1CCC(CCC[C@@H](NS(=O)(=O)Cc2ccccc2)C(=O)N[C@@H](CCC2CCNCC2)C(=O)NCc2ccc(C(=N)N)cc2)CC1 = 0.18

Return reported log10(Ki) values for all items listed beneath this line.
1. COC(=O)N1CCC(CC[C@@H](NS(=O)(=O)Cc2ccccc2)C(=O)N[C@@H](CCC2CCNCC2)C(=O)NCc2ccc(C(=N)N)cc2)CC1
2. N=C(N)c1ccc(CNC(=O)[C@H](CCC2CCNCC2)NC(=O)[C@@H](CCCc2ccccc2)NS(=O)(=O)Cc2cccc(C(=O)O)c2)cc1
3. CC(C)C(=O)N1CCC(CC[C@@H](NS(=O)(=O)Cc2ccccc2)C(=O)N[C@@H](CCC2CCNCC2)C(=O)NCc2ccc(C(=N)N)cc2)CC1

-0.15
0.58
-0.22
